Origin of the recorded values: patent US20250288652A1

tested on: Propionibacterium acnes; assay: MIC of selected lysin after single-step purification, Example 8; type: cell-based; conditions: single-step purified lysin; clade IA1, strain 1
measured.quantity: MIC of selected lyases relative to Propionibacterium acnes
Numeric answer plus unit only.

Query: Bench note: what MIC of selected lyases relative to Propionibacterium acnes did PACL10: phage lysin, amino acid sequence SEQ ID NO: 10; 29.4 kDa (protein, PACL10, 29.4 kDa) MTFIQAAHHSSGSNLPPTRVVIHATCPELGFPRASAKGRAVSTARYFQSAISGGSAHYVVDVGETVQCLAEDVIAWHAPPNSRSLGIEICADGGSATSFKNPNVRYSRAQWLSPQVWPAVLRAAALTRQMCQKYGIPVTKLSASDLKAGKKGICGHVDVSNAWHQSDHDDPGPDFPWAEFMAAVKGGATNPDELELTVSQFSDLTKRLQGMQEQTHHDLGVVQTKLATMDTVKNPRTGAKWSLKDAIWSIWYYVLENRDRIAALEKKVK show?
Response: 8 µg/mL
